- target_of_assay: human CD33 F117A (human, UniProt P20138 18-364)
- Sequence (P20138 18-364 F117A limits assumed): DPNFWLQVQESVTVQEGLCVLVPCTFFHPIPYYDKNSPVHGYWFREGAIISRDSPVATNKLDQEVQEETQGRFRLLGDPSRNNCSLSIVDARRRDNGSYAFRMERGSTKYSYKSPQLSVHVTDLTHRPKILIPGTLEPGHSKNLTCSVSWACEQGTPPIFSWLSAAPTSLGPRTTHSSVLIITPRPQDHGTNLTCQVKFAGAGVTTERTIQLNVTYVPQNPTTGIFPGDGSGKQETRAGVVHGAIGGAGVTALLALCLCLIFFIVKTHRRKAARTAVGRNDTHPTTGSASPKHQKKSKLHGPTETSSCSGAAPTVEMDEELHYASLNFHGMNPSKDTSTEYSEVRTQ
- method_description: flow cytometry on HEK293-T, alanine scan
assay_readout: Mean % WT Binding (% WT binding)
Express it in % WT binding; write the number only.

Worked examples, 3 binders total:
| binder | observed |
| --- | --- |
| Refmab #2 (antibody, V domains shown, The alanine scan used IgG or Fab) VH: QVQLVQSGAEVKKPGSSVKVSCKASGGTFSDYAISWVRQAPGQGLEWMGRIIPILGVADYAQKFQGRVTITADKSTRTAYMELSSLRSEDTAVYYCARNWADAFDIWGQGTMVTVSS VL: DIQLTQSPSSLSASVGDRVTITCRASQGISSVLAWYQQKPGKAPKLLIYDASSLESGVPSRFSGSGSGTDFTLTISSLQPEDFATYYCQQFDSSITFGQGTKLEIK | 111 |
| Refmab #1 (antibody, V domains shown, The alanine scan used IgG or Fab; also called hP67.6) VH: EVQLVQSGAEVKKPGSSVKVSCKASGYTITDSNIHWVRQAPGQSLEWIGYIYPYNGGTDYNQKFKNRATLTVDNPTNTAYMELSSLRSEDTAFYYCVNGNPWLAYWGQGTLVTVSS VL: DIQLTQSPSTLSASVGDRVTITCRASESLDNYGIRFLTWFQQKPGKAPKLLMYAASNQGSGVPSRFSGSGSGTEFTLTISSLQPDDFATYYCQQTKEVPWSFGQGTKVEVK | 98.7 |
| Refmab #4 (antibody, V domains shown, The alanine scan used IgG or Fab) VH: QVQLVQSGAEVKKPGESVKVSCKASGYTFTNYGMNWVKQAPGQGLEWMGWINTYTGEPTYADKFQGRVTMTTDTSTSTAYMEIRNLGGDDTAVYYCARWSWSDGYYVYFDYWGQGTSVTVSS VL: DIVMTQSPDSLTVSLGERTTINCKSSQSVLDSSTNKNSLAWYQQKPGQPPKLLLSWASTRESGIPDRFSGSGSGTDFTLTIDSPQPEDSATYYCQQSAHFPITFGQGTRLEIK | 142 |

We next turn to a different binder, shown below.
Lab note: measured Mean % WT Binding of Refmab #3 (antibody, V domains shown, The alanine scan used IgG or Fab) VH: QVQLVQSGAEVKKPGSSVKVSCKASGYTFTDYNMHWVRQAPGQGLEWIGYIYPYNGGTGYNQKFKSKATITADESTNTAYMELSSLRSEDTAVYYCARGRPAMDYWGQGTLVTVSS VL: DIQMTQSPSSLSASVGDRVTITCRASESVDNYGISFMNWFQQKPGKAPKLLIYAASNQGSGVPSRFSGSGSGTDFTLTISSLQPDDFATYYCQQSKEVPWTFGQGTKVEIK was 166
